# Tested on: MRSA USA300
# procedure-text: Library hits: MIC/MBC against MRSA
# Type: cell-based, Staphylococcus aureus
# reported-conditions: Staphylococcus aureus; read-out: MIC
Give MIC for every item shown.
# unit: µM | format: bare number

Request: # query: MIC | item c1ccc(-c2ccc(C(c3ccccc3)n3ccnc3)cc2)cc1 (stereo not drawn) | system: MRSA USA300
Result: 8

Request: # returns recorded MIC (system: MRSA USA300) for CC(=O)[C@]1(O)Cc2c(O)c3c(c(O)c2[C@@H](O[C@H]2C[C@H](N)[C@H](O)[C@H](C)O2)C1)C(=O)c1ccccc1C3=O
Result: 4

Request: Find the measured MIC: item CC/C(=C(\c1ccccc1)c1ccc(OCCN(C)C)cc1)c1ccccc1 , target or system MRSA USA300.
Result: 16

Request: Hello, I am looking for reported MIC with MRSA USA300 for CC(C)NCC(O)c1ccc(O)c(O)c1 (stereo not drawn) . Could you help?
Result: 16

Request: Form field: MIC recorded for Clc1ccccc1C(c1ccccc1)(c1ccccc1)n1ccnc1 with MRSA USA300 (enter value)
Result: 4

###

Please provide measured MBC for the entries that follow.
# Test system: MRSA USA300
# procedure-text: Library hits: MIC/MBC against MRSA
# Type: cell-based, Staphylococcus aureus
# reported-conditions: Staphylococcus aureus; read-out: MBC
Quick note: give the figure in µM, leave out the unit.

Request: Look at this molecule and give its reported MBC. CC/C(=C(\c1ccccc1)c1ccc(OCCN(C)C)cc1)c1ccccc1
Result: 16

Request: What MBC value was documented for this molecule, CCN(CC)CCOc1ccc(C(=C(Cl)c2ccccc2)c2ccccc2)cc1 ?
Result: 32

Request: Entry under review: Clc1ccc(COC(Cn2ccnc2)c2ccc(Cl)cc2Cl)cc1 (stereo not shown) . Reported MBC?
Result: 32

Request: Please look up its MBC: O=c1c2ccccc2[se]n1-c1ccccc1
Result: 0.5

Request: Fill in: MBC of CC(C)NCC(O)c1ccc(O)c(O)c1 (stereo not shown) is ___
Result: 64

Request: Look up MBC for this molecule: CN(C)CCOc1ccc(/C(=C(/CCCl)c2ccccc2)c2ccccc2)cc1
Result: 16

Request: Request the reported MBC associated with Clc1ccc(CO/N=C(\Cn2ccnc2)c2ccc(Cl)cc2Cl)c(Cl)c1
Result: 32

Request: Sample CSc1nc2cc(Cl)c(Oc3cccc(Cl)c3Cl)cc2[nH]1 — what was its MBC?
Result: 32

Request: For the molecule shown here, O=c1[nH]c(=O)n([C@H]2C[C@H](O)[C@@H](CO)O2)cc1F , give the reported MBC.
Result: 0.5

###

Exercise: for every item that follows, state its recorded MIC.
# Tested on: MRSA USA300
# procedure-text: Library hits: MIC/MBC against MRSA
# Type: cell-based, Staphylococcus aureus
# reported-conditions: Staphylococcus aureus; read-out: MIC
Your answer is read as µM, so omit the unit and give the number.

Request: Quick one: MIC for CN(C)CCOc1ccc(/C(=C(/CCCl)c2ccccc2)c2ccccc2)cc1 [Toremifene] ?
Result: 16

Request: Looking for the measured MIC of CCN(CC)CCOc1ccc(C(=C(Cl)c2ccccc2)c2ccccc2)cc1 [Clomid] , can you help?
Result: 16

Request: Looking for the measured MIC of Clc1ccc(COC(Cn2ccnc2)c2ccc(Cl)cc2Cl)cc1 (stereo not shown) [Econazole] , can you help?
Result: 4

Request: # lookup: MIC of CSc1nc2cc(Cl)c(Oc3cccc(Cl)c3Cl)cc2[nH]1 [Triclabendazole]
Result: 8

Request: Reported MIC, molecule CCCCCCNC(=O)n1cc(F)c(=O)[nH]c1=O [Carmofur] : ____
Result: 2

Request: Query (molecule): COc1cccc2c1C(=O)c1c(O)c3c(c(O)c1C2=O)C[C@@](O)(C(=O)CO)C[C@@H]3O[C@H]1C[C@H](N)[C@@H](O)[C@H](C)O1 [Epirubicin] ; field requested: MIC
Result: 16

Request: I'd like to know its MIC. The molecule in question is Clc1ccc(COC(Cn2ccnc2)c2ccc(Cl)cc2Cl)c(Cl)c1 (stereo not shown) [Miconazole]
Result: 4

Request: Reported MIC for O=c1[nH]cc(F)c(=O)[nH]1 [5-Fluorouracil] : what is it?
Result: 4
